- Tested on: H4
- experimental.details: Cytotoxicity against human H4 cells expressing wild type betaAPP695 assessed as decrease in cell protein at 30 uM after 24 hrs
- Type: cell-based
- Design: scale not given: the % may be the effect or the level left
- conditions: h4, 24 h
assay.endpoint: Activity (%)
Give bare numbers, in %.

Recorded results for 8 compounds are shown here.
O=C(NCCSCc1cccc(F)c1)c1c(F)cccc1F = 1.8
COc1cccc(C[S+]([O-])CCNC(=O)c2c(Cl)cccc2Cl)c1 (stereo not drawn) = 9.2
O=C(NCC[S+]([O-])Cc1cccc(Cl)c1)c1c(Cl)cccc1Cl (stereo not drawn) = 7.3
CCOC(=O)c1cccc(CSCCNC(=O)c2c(Cl)cccc2Cl)c1 = 5.4
N#Cc1cccc(CSCCNC(=O)c2c(Cl)cccc2Cl)c1 = 4.3
COc1cccc(CSCCNC(=O)c2c(Cl)cccc2Cl)c1OC = 8.7
O=C(NCCSCc1cc(O)cc(O)c1)c1c(Cl)cccc1Cl = -0.7
O=C(O)c1cccc(CSCCNC(=O)c2c(Cl)cccc2Cl)c1 = 3.2

Items follow; give Activity for each.
1. COc1cc(CSCCNC(=O)c2c(Cl)cccc2Cl)cc(OC)c1
2. O=C(NCCSCc1ccccc1Cl)c1c(Cl)cccc1Cl
3. O=C(NCC[S+]([O-])Cc1cccc(O)c1)c1c(Cl)cccc1Cl (stereo not drawn)
4. O=C(NCCSCc1cccc(O)c1)c1c(O)cccc1O

1. -8.7
2. -11
3. 4.4
4. 14.3

Items follow; give Activity for each.
1. NC(=O)c1cccc(CSCCNC(=O)c2c(Cl)cccc2Cl)c1
2. COc1cccc(CSCCNC(=O)c2c(Cl)cccc2OC)c1
3. Clc1cccc(CSCCNCc2c(Cl)cccc2Cl)c1
4. O=C(NCCOCc1cccc(Cl)c1)c1c(Cl)cccc1Cl

-8.6
9.3
6.6
4.2

Items follow; give Activity for each.
1. COc1cccc(CSCCNC(=O)c2c(Cl)cccc2Cl)c1
2. O=C(NCCSCc1cccc(F)c1)c1c(Cl)cccc1Cl

13.2
3.7

Items follow; give Activity for each.
1. O=C(NCCSCc1cccc(Br)c1)c1c(Br)cccc1Br
2. O=C(NCCSCc1cccc(OCCOCCO)c1)c1c(Cl)cccc1Cl
3. O=C(NCCS(=O)(=O)Cc1cccc(Cl)c1)c1c(Cl)cccc1Cl
4. COc1cc(Cl)cc(CSCCNC(=O)c2c(Cl)cccc2Cl)c1
5. O=C(NCCSCc1ccccc1)c1c(Cl)cccc1Cl
6. O=C(NCCSCc1ccc(Cl)cc1)c1c(Cl)cccc1Cl
7. Cc1cccc(CSCCNC(=O)c2c(Cl)cccc2Cl)c1

[23.9, 6.1, -3.8, 0.4, -0.7, 3, 16.6]

Items follow; give Activity for each.
1. O=C(NCCSCc1cccc(O)c1)c1c(Cl)cccc1Cl
2. NC(=O)c1c(Cl)cccc1CSCCNC(=O)c1c(Cl)cccc1Cl
3. O=C(NCCSCc1cccc(Br)c1)c1c(Cl)cccc1Cl
4. O=C(NCCSCc1cccc(Cl)c1)c1ccccc1
5. COc1cccc(CSCCNC(=O)c2c([N+](=O)[O-])cccc2[N+](=O)[O-])c1

1: 6.6; 2: -5.6; 3: 38.6; 4: -4.5; 5: -3.8

Items follow; give Activity for each.
1. O=C(NCCSCc1cccc(Cl)c1)c1c(F)cccc1F
2. O=C(NCCSCc1cccc(I)c1)c1c(Cl)cccc1Cl
3. COc1cccc(CSCCNC(=O)c2c(OC)cccc2OC)c1
4. O=C(NCCSCc1cccc(Cl)c1)c1c(Br)cccc1Br
5. O=C(NCCSCc1cccc(NC(=O)C2CC2)c1)c1c(Cl)cccc1Cl
6. N#Cc1c(Cl)cccc1CSCCNC(=O)c1c(Cl)cccc1Cl
7. Cc1cccc(C)c1C(=O)NCCSCc1cccc(Cl)c1
8. O=C(NCCS(=O)(=O)Cc1cccc(O)c1)c1c(Cl)cccc1Cl

1: 8.1; 2: 19; 3: 3.9; 4: 20.8; 5: 3.2; 6: 1.3; 7: -9.4; 8: 4.4

Items follow; give Activity for each.
1. COc1ccc(CSCCNC(=O)c2c(Cl)cccc2Cl)cc1
2. COc1cccc(CS(=O)(=O)CCNC(=O)c2c(Cl)cccc2Cl)c1

1. 12.7
2. 8.9

Items follow; give Activity for each.
1. Nc1cccc(CSCCNC(=O)c2c(Cl)cccc2Cl)c1
2. O=Cc1cccc(CSCCNC(=O)c2c(Cl)cccc2Cl)c1

13.1
-2.1

====

- System: H4
- experimental.details: Cytotoxicity against human H4 cells expressing wild type betaAPP695 assessed as decrease in cell protein at 30 uM after 24 hrs
- Assay type: cell-based
- Set-up: scale not given: the % may be the effect or the level left
- conditions: h4, 24 h
Kindly supply the reported Activity values for the records listed here.
Express your answer as a number followed by its unit.

Recorded results for 4 molecules are shown here.
N=C(NO)c1cccc(CSCCNC(=O)c2c(Cl)cccc2Cl)c1 = 5.9%
O=C(NCCSCc1ccc(O)cc1)c1c(Cl)cccc1Cl = 4.4%
O=C(NC1CC1)c1cccc(CSCCNC(=O)c2c(Cl)cccc2Cl)c1 = -1%
COc1cccc(OC)c1C(=O)NCCSCc1cccc(Cl)c1 = -0.6%

Attention now turns to another entry.
The molecule listed as O=C(NCCSCc1cccc([N+](=O)[O-])c1)c1c(Cl)cccc1Cl has a reported Activity of 24.6%

====

- Test system: H4
- experimental.details: Cytotoxicity against human H4 cells expressing wild type betaAPP695 assessed as decrease in cell protein at 10 uM after 24 hrs
- Assay type: cell-based
- Parameters: scale not given: the % may be the effect or the level left
- conditions: h4, 24 h
assay.endpoint: Activity (%)
Give bare numbers, in %.

Recorded results for 3 molecules are shown here.
Clc1cccc(CSCCNCc2c(Cl)cccc2Cl)c1 = -3.6
O=C(NCCSCc1cccc(I)c1)c1c(Cl)cccc1Cl = 9.2
O=C(NCCSCc1cccc(Br)c1)c1c(Cl)cccc1Cl = 12.3

Items follow; give Activity for each.
1. O=C(Cc1c(Cl)cccc1Cl)NCCSCc1cccc(Cl)c1
2. O=C(NCCSCc1ccccc1Cl)c1c(Cl)cccc1Cl
3. COc1cc(Cl)cc(CSCCNC(=O)c2c(Cl)cccc2Cl)c1

[-1.3, -0.5, 0.9]

Items follow; give Activity for each.
1. O=C(NCCS(=O)(=O)Cc1cccc(Cl)c1)c1c(Cl)cccc1Cl
2. N#Cc1cccc(CSCCNC(=O)c2c(Cl)cccc2Cl)c1
3. O=C(NCCSCc1ccc(Cl)cc1)c1c(Cl)cccc1Cl
4. COc1cccc(CSCCNC(=O)c2c(Cl)cccc2OC)c1
5. Cc1cccc(CSCCNC(=O)c2c(Cl)cccc2Cl)c1
6. O=C(NCCSCc1cccc(C(F)(F)F)c1)c1c(Cl)cccc1Cl

1: -2.2; 2: -4.8; 3: -6.4; 4: 1.9; 5: 11.7; 6: 19

Items follow; give Activity for each.
1. O=C(NCCSCc1cccc(Cl)c1)c1c(Br)cccc1Br
2. N=C(NO)c1cccc(CSCCNC(=O)c2c(Cl)cccc2Cl)c1

[6.7, 9.2]

Items follow; give Activity for each.
1. O=C(NCCSCc1ccc(O)cc1)c1c(Cl)cccc1Cl
2. O=C(NCCSCc1cccc([N+](=O)[O-])c1)c1c(Cl)cccc1Cl
3. COc1ccc(CSCCNC(=O)c2c(Cl)cccc2Cl)cc1
4. O=C(NCCSCc1cccc(F)c1)c1c(Cl)cccc1Cl
5. O=C(O)c1cccc(CSCCNC(=O)c2c(Cl)cccc2Cl)c1

8.7
7.5
6.7
2.6
7.1

Items follow; give Activity for each.
1. NC(=O)c1cccc(CSCCNC(=O)c2c(Cl)cccc2Cl)c1
2. O=C(NCCSCc1cccc(O)c1)c1c(O)cccc1O
3. O=C(NCCSCc1cccc(Br)c1)c1c(Br)cccc1Br
4. O=C(NCCSCc1cccc(OCCOCCO)c1)c1c(Cl)cccc1Cl
5. NC(=O)c1c(Cl)cccc1CSCCNC(=O)c1c(Cl)cccc1Cl
6. COc1cccc(OC)c1C(=O)NCCSCc1cccc(Cl)c1
7. O=C(NCCOCc1cccc(Cl)c1)c1c(Cl)cccc1Cl

1. -2.8
2. 10.5
3. 9.8
4. -7.3
5. 2.5
6. 7.1
7. -9.9

Items follow; give Activity for each.
1. O=C(NCCSCc1cccc(O)c1O)c1c(Cl)cccc1Cl
2. O=C(NCCSCc1cccc(Cl)c1)c1c(C(F)(F)F)cccc1C(F)(F)F
3. COc1cccc(CSCCNC(=O)c2c(Cl)cccc2Cl)c1
4. COc1cccc(CSCCNC(=O)c2c(Cl)cccc2Cl)c1OC
5. O=C(NCCSCc1cccc(NC(=O)C2CC2)c1)c1c(Cl)cccc1Cl
6. O=Cc1cccc(CSCCNC(=O)c2c(Cl)cccc2Cl)c1
7. Cc1cccc(C)c1C(=O)NCCSCc1cccc(Cl)c1
8. O=C(NCCSCc1cccc(Cl)c1)c1c(F)cccc1F

1: -4.8; 2: -4.2; 3: 8.4; 4: -0.1; 5: 3; 6: 1.5; 7: 0.9; 8: 5.1

Items follow; give Activity for each.
1. O=C(NCCS(=O)(=O)Cc1cccc(O)c1)c1c(Cl)cccc1Cl
2. COc1cccc(CSCCNC(=O)c2c([N+](=O)[O-])cccc2[N+](=O)[O-])c1
3. CCOC(=O)c1cccc(CSCCNC(=O)c2c(Cl)cccc2Cl)c1
4. O=C(NCCSCc1cccc(Cl)c1)c1ccccc1
5. N#Cc1c(Cl)cccc1CSCCNC(=O)c1c(Cl)cccc1Cl
6. Nc1cccc(CSCCNC(=O)c2c(Cl)cccc2Cl)c1
7. COc1cccc(CSCCNC(=O)c2c(OC)cccc2OC)c1
8. O=C(NC1CC1)c1cccc(CSCCNC(=O)c2c(Cl)cccc2Cl)c1

1. 7.7
2. 3.7
3. 5.8
4. 2.4
5. 3.5
6. 15.3
7. 0.5
8. 0
